B1: tRNA (parent)
chain: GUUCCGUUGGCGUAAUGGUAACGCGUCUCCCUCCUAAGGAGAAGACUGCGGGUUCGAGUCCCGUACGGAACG

Variants of: B1
Assay: yeast fitness relative to wild type (ratio to wild type); higher = fitter; tRNA-Arg(CCU), competitive growth, 37 C, YPD
Variants at the floor of the assay were thinned out.
Rule: TRUE for yeast fitness not less than 0.7, FALSE for anything less.

The following variants have reported results that may help.
- C4A G6C U8A A20C A21U C33U C46U A57G: FALSE
- G12A A21G C34U G67U: FALSE
- C11G A21U: FALSE
- U7C U13A C24U G51A U59A A65C: FALSE

-- ask Quick check, yeast fitness >= 0.7? C11A A42G A43G C61A
-- reply FALSE

-- ask And C5A U16C C22U G63A ?
-- reply FALSE

-- ask # iterate: G9A A15G
-- reply TRUE

-- ask Also A20C C62A G68C ?
-- reply FALSE

-- ask // repeat for U7A A37U G50A U53C C62A A69U and report
-- reply FALSE

-- ask Now this one: U19C C31G A65U
-- reply FALSE
